Target or system: Skp2 (UniProt Q13309 1-424, limits assumed)
Sequence (Q13309 whole entry): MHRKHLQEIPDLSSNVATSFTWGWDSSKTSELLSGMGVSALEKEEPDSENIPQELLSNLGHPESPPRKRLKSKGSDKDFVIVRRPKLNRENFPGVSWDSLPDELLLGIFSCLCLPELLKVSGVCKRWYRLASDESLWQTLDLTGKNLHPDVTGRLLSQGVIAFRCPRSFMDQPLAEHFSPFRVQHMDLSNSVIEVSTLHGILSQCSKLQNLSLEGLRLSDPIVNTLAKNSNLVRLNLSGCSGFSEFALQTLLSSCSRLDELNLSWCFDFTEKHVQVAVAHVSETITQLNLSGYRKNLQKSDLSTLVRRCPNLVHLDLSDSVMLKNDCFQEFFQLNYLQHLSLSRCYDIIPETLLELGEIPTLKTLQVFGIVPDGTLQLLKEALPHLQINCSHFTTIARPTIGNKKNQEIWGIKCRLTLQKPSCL
Assay protocol: cell-based or functional assay
Starred links: 1 amine or outer side, 2 acyl side, 3 side chain; linkers in the order of their positions; H or OH if unused. Non-standard residues stand in square brackets, D forms with d. Phe(4-NO2) = N[C@@H](Cc1ccc([N+](=O)[O-])cc1)C(=O)O; Phe(3-F) = N[C@@H](Cc1cccc(F)c1)C(=O)O; 1Nal = N[C@@H](Cc1cccc2ccccc12)C(=O)O; Suc = O=C(CCC(=O)[*:2])[*:1]
Quantity: % Inhibition Skp2 @ (100 µM) (%)
API: value field is a number in %; no unit string.

[[record]]
binder = "Ac-[dD]EG[Phe(3-F)]WE-NH2 (also called UBP017) [Ac-dEGF(3F)WE-NH2]"
unit_abbrev = "%"
numeric_result = 27

[[record]]
binder = "Suc-EG[Phe(4-NO2)][1Nal]E-NH2 (SMILES NC(=O)[C@H](CCC(=O)O)NC(=O)[C@H](Cc1cccc2ccccc12)NC(=O)[C@H](Cc1ccc([N+](=O)[O-])cc1)NC(=O)CNC(=O)[C@H](CCC(=O)O)NC(=O)CCC(=O)O) [Suc-EGF(4NO2)1NalE-NH2]"
unit_abbrev = "%"
numeric_result = 6


Next binder, please.
Would you mind telling me what % Inhibition Skp2 @ (100 µM) value was observed for Suc-EGY[1Nal]E-NH2 [Suc-EGY1NalE-NH2] ?
6
